Origin of the recorded values: ChEMBL document CHEMBL3885861

Species on record: Rattus norvegicus
Experiment: Open TG-GATES - Regimen: Single
Format: toxicity, organism-based, Sprague-Dawley
Design: regimen Single, gender Male, age 6 weeks
Conditions: in vivo, po, 0 mg/kg, 24 h, tissue Blood, route gavage, dose level Control
This section presents molecules with their documented PT values.
The reply should be a number in s, with the unit left off.

Illustrative cases are given below, each with its answer.
| molecule | unitAbbreviation | PT |
| --- | --- | --- |
| Nc1nc(N)c2nc(-c3ccccc3)c(N)nc2n1 | s | 13.7 |
| O=C(O)c1cccnc1 | s | 16.1 |
| CC(=O)Oc1cc(C(C)C)c(OCCN(C)C)cc1C | s | 16.2 |

PT measured on `CN1C(=O)OC(C)(C)C1=O` = 13.3

PT measured on CC(=N)S [THIOACETAMIDE] = 12.1

PT measured on `CCc1oc2ccccc2c1C(=O)c1cc(I)c(O)c(I)c1` = 11.8

PT measured on CCN1CCCC1CNC(=O)c1cc(S(N)(=O)=O)ccc1OC (stereo unspecified) [SULPIRIDE] = 13.1

PT measured on CC(C)C(=O)Nc1ccc([N+](=O)[O-])c(C(F)(F)F)c1 [FLUTAMIDE] = 12.6

PT measured on `O=C(N[C@H](CO)[C@H](O)c1ccc([N+](=O)[O-])cc1)C(Cl)Cl` = 14.3

PT measured on `Oc1ncnc2[nH]ncc12` = 12

PT measured on `CC(C)(S)[C@@H](N)C(=O)O` = 13.9

###

Species: Rattus norvegicus
Assay: Open TG-GATES - Regimen: Daily Repeat
Type: toxicity, organism-based, Sprague-Dawley
Design: regimen Daily Repeat, gender Male, age 6 weeks
Conditions: in vivo, po, 0 mg/kg, […], tissue Plasma, route gavage, dose level Control, time 28 day
parameter: Cl (meq/L)
The reply should be a number in meq/L, with the unit left off.

Illustrative cases are given below, each with its answer.
| molecule | Cl (meq/L) |
| --- | --- |
| O=C(N[C@H](CO)[C@H](O)c1ccc([N+](=O)[O-])cc1)C(Cl)Cl | 104.4 |
| Nc1nc(N)c2nc(-c3ccccc3)c(N)nc2n1 | 104.2 |
| CCc1oc2ccccc2c1C(=O)c1cc(I)c(O)c(I)c1 | 105.6 |
| CCN1CCCC1CNC(=O)c1cc(S(N)(=O)=O)ccc1OC (centres undefined) [SULPIRIDE] | 104.8 |

Cl measured on CC(C)C(=O)Nc1ccc([N+](=O)[O-])c(C(F)(F)F)c1 [FLUTAMIDE] = 104.6

Cl measured on `C[C@]12CCC(=O)C=C1CC[C@@H]1[C@@H]2CC[C@@]2(C)[C@H]1CC[C@]2(C)O` = 105.4

Cl measured on `C[C@](N)(Cc1ccc(O)c(O)c1)C(=O)O` = 105.6

Cl measured on `CN1C(=O)OC(C)(C)C1=O` = 105.6

Cl measured on `O=C(O)c1cccnc1` = 106.4

Cl measured on `CC(=O)Oc1cc(C(C)C)c(OCCN(C)C)cc1C` = 104.5

Cl measured on CC(=N)S [THIOACETAMIDE] = 103

Cl measured on `CCSCC[C@H](N)C(=O)O` = 103

Cl measured on `CC(C)(S)[C@@H](N)C(=O)O` = 105.8

Cl measured on `C#C[C@]1(O)CC[C@H]2[C@@H]3CCc4cc(O)ccc4[C@H]3CC[C@@]21C` = 104.8
